- test-details: Selectivity index, ratio of IC50 for rat L6 cells to IC50 for chloroquine-resistant Plasmodium falciparum K1
- Assay type: toxicity, cell-based
- condition-context: read-out: Ratio IC50
# selectivity ratio >= 2000 gives rule met, anything below gives rule not met

Task item: Hi team, for `CCOC(=O)c1cc(C(=N)N)ccc1OCCCCCOc1ccc(C(=N)N)cc1C(=O)OCC` , is the recorded selectivity ratio at or above 2000?
Reply: rule met

Task item: Identify whether the reported selectivity ratio of the following compound is 2000 or greater: `Cl.Cl.Cl.Cl.N=C(N)c1ccc(OCCCOc2ccc(C(=N)N)cc2Cl)c(Cl)c1`
Reply: rule not met

Task item: # check: selectivity ratio of `Cl.Cl.N=C(N)c1cccc(OCCCCCCOc2cccc(C(=N)N)c2)c1` is greater than or equal to 2000
Reply: rule not met

Task item: Reported selectivity ratio at or above 2000? `Cl.Cl.N=C(N)c1ccc(OCCCOc2ccc(C(=N)N)cc2)cc1`
Reply: rule not met

Task item: Exam item: decide whether the reported selectivity ratio for `Cl.Cl.N=C(N)c1ccc(OCCCCCOc2ccc(C(=N)N)cc2C(N)=O)c(C(N)=O)c1` is at least 2000.
Reply: rule met

Task item: selectivity ratio >= 2000 for `Cl.Cl.N=C(N)c1ccc(OCCCCCCOc2ccc(C(=N)N)cc2)cc1` ?
Reply: rule not met

Task item: Threshold query (selectivity ratio >= 2000) on `CC(C)NC(=N)c1ccc(NCCCCCNc2ccc(C(=N)NC(C)C)cc2)cc1.Cl`
Reply: rule met

Task item: For this compound, is measured selectivity ratio 2000 or higher? `N=C(N)c1ccc(OCCCCCOc2ccc(C(=N)N)cc2[N+](=O)[O-])c([N+](=O)[O-])c1`
Reply: rule not met

Task item: Given the entry `Cl.Cl.Cl.Cl.N=C(N)c1ccc(OCCCCCOc2ccc(C(=N)N)cc2Cl)c(Cl)c1` , answer whether its selectivity ratio meets or surpasses 2000.
Reply: rule not met

Task item: Determine whether this compound has selectivity ratio no lower than 2000: `Cl.Cl.N=C(N)c1ccc(OCCCCCOc2ccc(C(=N)N)c(F)c2)cc1F`
Reply: rule not met

Task item: Dear colleague, could you confirm whether `COc1cc(C2=NCCN2)ccc1OCCCOc1ccc(C2=NCCN2)cc1OC.Cl.Cl` has selectivity ratio at or above 2000?
Reply: rule not met

Task item: Form field: selectivity ratio at least 2000? Entry: `Cl.N=C(N)c1ccc(NCCCCCNc2ccc(C(=N)N)cc2)cc1`
Reply: rule not met

Task item: Please indicate if the recorded selectivity ratio for `CCOC(=O)c1cc(C(=N)N)ccc1OCCCCCOc1ccc(C(=N)N)cc1C(N)=O` meets or exceeds 2000.
Reply: rule met

Task item: Record `N=C(N)c1ccc(OCCCCCOc2ccc(C(=N)N)cc2C(=O)O)c(C(=O)O)c1` ; criterion: selectivity ratio no lower than 2000. Met?
Reply: rule not met

Task item: Does the reported selectivity ratio for `COc1cc(C(=N)N)ccc1OCCCCCOc1ccc(C(=N)N)cc1OC.Cl.Cl` fall at or above the 2000 mark?
Reply: rule met

Task item: Could you tell me if the measured selectivity ratio of `CC(C)NC(=N)c1cccc(OCCCCCOc2cccc(C(=N)NC(C)C)c2)c1` reaches 2000 or more?
Reply: rule met

Task item: Quick check: does `CC(C)NC(=N)c1cccc(OCCCCCCOc2cccc(C(=N)NC(C)C)c2)c1` have selectivity ratio greater than or equal to 2000?
Reply: rule met

Task item: Please check the record `CCOC(=O)c1cc(C2=NCCN2)ccc1OCCCCCOc1ccc(C2=NCCN2)cc1C(=O)OCC` and state if its selectivity ratio is at or above 2000.
Reply: rule met
